EXPERIMENT DESCRIPTION: Study .2: multiple rising dose trial in diabetic patients, once daily for 8 days, pharmacokinetic parameters
Format: in vivo, human
STUDY CONDITIONS: human, plasma, oral, 10 mg, 10 mg once daily, steady state, Study .2, fasted; read-out: Cmax,ss gMean
RECORDED METRIC: Cmax
Please make sure the unit comes right after the number.

Value of measured Cmax for the entry "OC[C@H]1O[C@@H](c2ccc(Cl)c(Cc3ccc(O[C@H]4CCOC4)cc3)c2)[C@H](O)[C@@H](O)[C@@H]1O" : 272 nM

====

EXPERIMENT DESCRIPTION: Study .2: multiple rising dose trial in diabetic patients, once daily for 8 days, pharmacokinetic parameters
Format: in vivo, human
STUDY CONDITIONS: 25 mg single dose, Study .2, fasted; read-out: Cmax Mean
RECORDED METRIC: Cmax (nM)
Unit nM implied. Number only.

Cmax recorded for this compound, "OC[C@H]1O[C@@H](c2ccc(Cl)c(Cc3ccc(O[C@H]4CCOC4)cc3)c2)[C@H](O)[C@@H](O)[C@@H]1O" , is 606

====

EXPERIMENT DESCRIPTION: Study .4: 4-week treatment of diabetic patients, once daily, pharmacokinetic parameters
Assay type: in vivo, human
STUDY CONDITIONS: 10 mg single dose, Study .4, fasted; read-out: Cmax Min
RECORDED METRIC: Cmax (nM)
Express it in nM; write the number only.

The recorded Cmax for entry "OC[C@H]1O[C@@H](c2ccc(Cl)c(Cc3ccc(O[C@H]4CCOC4)cc3)c2)[C@H](O)[C@@H](O)[C@@H]1O" equals 205

====

EXPERIMENT DESCRIPTION: Pharmacokinetic profile in fasting humans, ranges over Studies .1 to .5
Format: in vivo
STUDY CONDITIONS: human, plasma, oral, 2.5 mg, single dose of 2.5 mg, read-out: AUC0-inf
RECORDED METRIC: AUC(0-inf)

So for "OC[C@H]1O[C@@H](c2ccc(Cl)c(Cc3ccc(O[C@H]4CCOC4)cc3)c2)[C@H](O)[C@@H](O)[C@@H]1O" , the logged AUC(0-inf) turned out to be 326 to 631 nM·h

====

EXPERIMENT DESCRIPTION: Study .3: single dose, cross-over, food effect study in healthy volunteers, pharmacokinetic parameters
Type: in vivo, human
STUDY CONDITIONS: human, plasma, oral, 50 mg, 50 mg single dose, Study .3/fasted; read-out: Cmax Median
RECORDED METRIC: Cmax (nM)
Could you give me the number in nM? Just the number is fine.

Per the record, "OC[C@H]1O[C@@H](c2ccc(Cl)c(Cc3ccc(O[C@H]4CCOC4)cc3)c2)[C@H](O)[C@@H](O)[C@@H]1O" has Cmax of 1010

====

EXPERIMENT DESCRIPTION: Study .1: single dose study in healthy volunteers, pharmacokinetic parameters
Format: in vivo, human
STUDY CONDITIONS: human, plasma, oral, 2.5 mg, 2.5 mg single dose, Study .1, fasted; read-out: AUC0-inf Median
Description: 5. Pharmacokinetic Parameters The pharmacokinetic parameters of pharmaceutical compositions and pharmaceutical dosage forms are assessed in healthy volunteer and patient populations. […] For the quantification of plasma concentrations of the active ingredient, 2.7 mL of blood was collected and transferred into an EDTA (ethylendiaminetetraacetic acid)-anticoagulant blood drawing tube. […] Concentrations of active substance in EDTA human plasma samples were quantitated using a HPLC/MS/MS method. […]
RECORDED METRIC: AUC(0-inf)
Field note: include the unit after the figure.

Value of AUC(0-inf) reported for the compound "OC[C@H]1O[C@@H](c2ccc(Cl)c(Cc3ccc(O[C@H]4CCOC4)cc3)c2)[C@H](O)[C@@H](O)[C@@H]1O" is 0.398 µM·h
